Values compiled from patent US10481149B2.

TARGET OR TEST SYSTEM: BSEP (Homo sapiens)
METHOD: in vitro
EXPERIMENTAL PARAMETERS: hepatocytes in suspension, probe glycocholate
EXPERIMENTAL READOUT: inhibition at 1 h, 10 μM

Sample answers from the record:
MOLECULE	TARGET OR TEST SYSTEM	EXPERIMENTAL READOUT	ASSAY RESULT
OC(Cn1cncn1)(Cn1cncn1)c1ccc(F)cc1F	BSEP (Homo sapiens)	inhibition at 1 h, 10 μM	< 50%
CC(C)NCC(O)COc1cccc2ccccc12 (stereo not drawn)	BSEP (Homo sapiens)	inhibition at 1 h, 10 μM	< 50%

Kindly review the next molecule as well.
Recorded result, CC[C@]1(O)C[C@@H]2CN(CCc3c([nH]c4ccccc34)[C@@](C(=O)OC)(c3cc4c(cc3OC)N(C)[C@H]3[C@@](O)(C(=O)OC)[C@H](OC(C)=O)[C@]5(CC)C=CCN6CC[C@]43[C@@H]65)C2)C1 , inhibition at 1 h, 10 μM: > 50%

---

TARGET OR TEST SYSTEM: BSEP (Mus musculus, UniProt Q9QY30)
Sequence (Q9QY30 whole entry): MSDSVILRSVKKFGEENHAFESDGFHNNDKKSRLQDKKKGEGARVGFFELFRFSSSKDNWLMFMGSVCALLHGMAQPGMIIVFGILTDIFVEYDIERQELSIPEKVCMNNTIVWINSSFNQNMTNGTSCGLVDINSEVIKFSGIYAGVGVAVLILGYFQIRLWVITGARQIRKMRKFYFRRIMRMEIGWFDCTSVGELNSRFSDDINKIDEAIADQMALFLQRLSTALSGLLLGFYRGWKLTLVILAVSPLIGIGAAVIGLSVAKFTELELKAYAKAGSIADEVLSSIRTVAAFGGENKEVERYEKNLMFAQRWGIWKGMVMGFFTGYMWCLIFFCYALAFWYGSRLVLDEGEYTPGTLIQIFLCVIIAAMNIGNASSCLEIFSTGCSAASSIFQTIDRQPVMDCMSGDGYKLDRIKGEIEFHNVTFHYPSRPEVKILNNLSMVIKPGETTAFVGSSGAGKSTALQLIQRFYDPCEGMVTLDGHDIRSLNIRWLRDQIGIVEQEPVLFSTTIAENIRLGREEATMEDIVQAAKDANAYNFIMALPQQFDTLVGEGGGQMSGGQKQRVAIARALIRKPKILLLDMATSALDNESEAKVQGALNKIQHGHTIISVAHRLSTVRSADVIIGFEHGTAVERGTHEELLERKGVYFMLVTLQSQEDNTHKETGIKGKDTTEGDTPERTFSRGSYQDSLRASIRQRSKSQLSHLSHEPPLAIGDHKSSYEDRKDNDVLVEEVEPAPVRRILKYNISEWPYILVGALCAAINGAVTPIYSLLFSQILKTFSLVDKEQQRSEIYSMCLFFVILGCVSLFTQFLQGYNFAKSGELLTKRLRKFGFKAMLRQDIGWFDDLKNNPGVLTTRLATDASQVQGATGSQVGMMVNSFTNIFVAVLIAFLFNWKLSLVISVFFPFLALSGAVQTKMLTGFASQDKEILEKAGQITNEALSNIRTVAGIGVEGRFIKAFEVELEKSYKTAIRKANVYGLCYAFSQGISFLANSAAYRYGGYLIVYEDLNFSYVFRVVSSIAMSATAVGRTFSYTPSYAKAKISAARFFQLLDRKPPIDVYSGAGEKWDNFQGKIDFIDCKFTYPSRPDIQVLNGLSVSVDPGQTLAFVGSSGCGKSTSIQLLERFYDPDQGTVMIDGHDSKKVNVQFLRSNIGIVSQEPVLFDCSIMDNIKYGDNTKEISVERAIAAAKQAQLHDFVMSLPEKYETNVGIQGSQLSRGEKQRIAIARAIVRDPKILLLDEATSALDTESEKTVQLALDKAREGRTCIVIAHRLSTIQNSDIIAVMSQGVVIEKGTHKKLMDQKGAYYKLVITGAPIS
METHOD: Inhibition of BSEP activity (transport of taurocholate) in mouse hepatocytes
EXPERIMENTAL PARAMETERS: hepatocytes in suspension, probe taurocholate
EXPERIMENTAL READOUT: inhibition at 1 h, 10 μM

Sample answers from the record:
MOLECULE	inhibition at 1 h, 10 μM
CC(=O)N1CCN(c2ccc(OCC3COC(Cn4ccnc4)(c4ccc(Cl)cc4Cl)O3)cc2)CC1 (stereo not shown)	< 50%
COC(=O)N[C@H](C(=O)N[C@@H](Cc1ccccc1)[C@@H](O)CN(Cc1ccc(-c2ccccn2)cc1)NC(=O)[C@@H](NC(=O)OC)C(C)(C)C)C(C)(C)C	< 50%
Cc1c(O)cccc1C(=O)N[C@@H](CSc1ccccc1)[C@H](O)CN1C[C@H]2CCCC[C@H]2C[C@H]1C(=O)NC(C)(C)C	< 50%
O=c1c(O)c(-c2ccc(O)c(O)c2)oc2cc(O)cc(O)c12	< 50%
C[C@@H](Oc1cc(-c2cnn(C3CCNCC3)c2)cnc1N)c1c(Cl)ccc(F)c1Cl	< 50%

Kindly review the next molecule as well.
Recorded result, Cc1c(C)c2c(c(C)c1O)CCC(C)(COc1ccc(CC3SC(=O)NC3=O)cc1)O2 (stereo not shown) , inhibition at 1 h, 10 μM: < 50%

---

The compounds listed here are annotated with their IC50 at 1 h.
TARGET OR TEST SYSTEM: BSEP (Macaca fascicularis)
Sequence (D2CFL3 1-1323): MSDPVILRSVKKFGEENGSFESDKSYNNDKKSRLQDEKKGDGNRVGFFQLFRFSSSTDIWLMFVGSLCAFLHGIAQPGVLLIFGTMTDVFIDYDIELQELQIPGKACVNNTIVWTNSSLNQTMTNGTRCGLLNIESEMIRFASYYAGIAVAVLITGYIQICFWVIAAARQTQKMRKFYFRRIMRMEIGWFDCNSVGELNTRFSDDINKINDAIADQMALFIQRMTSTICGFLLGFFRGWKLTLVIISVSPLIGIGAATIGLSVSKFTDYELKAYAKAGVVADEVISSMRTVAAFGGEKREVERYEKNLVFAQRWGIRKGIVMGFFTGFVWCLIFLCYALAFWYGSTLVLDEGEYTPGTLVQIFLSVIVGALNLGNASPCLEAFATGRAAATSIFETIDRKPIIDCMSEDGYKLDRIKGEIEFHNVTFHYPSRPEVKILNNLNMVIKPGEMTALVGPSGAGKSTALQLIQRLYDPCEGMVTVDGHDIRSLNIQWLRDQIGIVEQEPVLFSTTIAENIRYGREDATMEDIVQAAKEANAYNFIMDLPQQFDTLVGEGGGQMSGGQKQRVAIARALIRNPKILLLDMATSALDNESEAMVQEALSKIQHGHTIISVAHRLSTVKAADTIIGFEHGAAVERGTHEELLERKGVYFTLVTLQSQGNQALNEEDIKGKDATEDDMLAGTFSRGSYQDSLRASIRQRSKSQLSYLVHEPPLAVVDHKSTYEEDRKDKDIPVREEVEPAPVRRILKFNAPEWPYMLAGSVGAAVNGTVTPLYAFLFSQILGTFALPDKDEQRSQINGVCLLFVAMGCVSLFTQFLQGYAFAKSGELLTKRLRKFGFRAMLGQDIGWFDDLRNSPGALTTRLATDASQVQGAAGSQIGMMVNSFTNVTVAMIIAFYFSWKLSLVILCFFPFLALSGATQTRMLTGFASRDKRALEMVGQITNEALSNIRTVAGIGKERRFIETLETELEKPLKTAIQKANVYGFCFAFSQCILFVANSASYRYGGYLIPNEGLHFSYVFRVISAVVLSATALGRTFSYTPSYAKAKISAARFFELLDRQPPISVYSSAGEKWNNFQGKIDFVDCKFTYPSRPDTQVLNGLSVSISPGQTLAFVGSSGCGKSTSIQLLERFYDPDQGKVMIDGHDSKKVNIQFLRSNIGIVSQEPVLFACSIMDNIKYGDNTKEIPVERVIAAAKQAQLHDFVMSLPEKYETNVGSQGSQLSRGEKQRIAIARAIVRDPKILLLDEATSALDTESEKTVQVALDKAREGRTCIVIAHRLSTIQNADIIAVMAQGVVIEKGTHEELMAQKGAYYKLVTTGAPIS
METHOD: IC50 for inhibition of BSEP activity in monkey hepatocytes
Assay type: cell-based
EXPERIMENTAL PARAMETERS: hepatocytes in suspension

COMPOUND	IC50 at 1 h
CC(=O)N1CCN(c2ccc(OCC3COC(Cn4ccnc4)(c4ccc(Cl)cc4Cl)O3)cc2)CC1 (stereo not drawn)	1000 to 10000 nM

Recorded result, Cc1c(C)c2c(c(C)c1O)CCC(C)(COc1ccc(CC3SC(=O)NC3=O)cc1)O2 (stereo not drawn) , IC50 at 1 h: 1000 to 10000 nM

Recorded result, CO[C@H]1/C=C/O[C@@]2(C)Oc3c(C)c(O)c4c(O)c(c(/C=N/N5CCN(C)CC5)c(O)c4c3C2=O)NC(=O)/C(C)=C\C=C\[C@H](C)[C@H](O)[C@@H](C)[C@@H](O)[C@@H](C)[C@H](OC(C)=O)[C@@H]1C , IC50 at 1 h: < 1000 nM

---

TARGET OR TEST SYSTEM: BSEP (Macaca fascicularis)
METHOD: in vitro
EXPERIMENTAL PARAMETERS: monkey, hepatocytes in suspension, probe glycocholate
EXPERIMENTAL READOUT: inhibition at 1 h, 1 μM

COMPOUND	inhibition at 1 h, 1 μM
CC[C@]1(O)C[C@@H]2CN(CCc3c([nH]c4ccccc34)[C@@](C(=O)OC)(c3cc4c(cc3OC)N(C)[C@H]3[C@@](O)(C(=O)OC)[C@H](OC(C)=O)[C@]5(CC)C=CCN6CC[C@]43[C@@H]65)C2)C1	< 50%
C[C@@H](Oc1cc(-c2cnn(C3CCNCC3)c2)cnc1N)c1c(Cl)ccc(F)c1Cl	< 50%
C=C[C@H]1C[N@@]2CC[C@H]1C[C@@H]2[C@@H](O)c1ccnc2ccc(OC)cc12	< 50%

Recorded result, CC(C)NCC(O)COc1cccc2ccccc12 (stereo not shown) , inhibition at 1 h, 1 μM: < 50%

---

The compounds listed here are annotated with their inhibition at 1 h, 10 μM.
TARGET OR TEST SYSTEM: BSEP (Homo sapiens, UniProt O95342)
Sequence (O95342 whole entry): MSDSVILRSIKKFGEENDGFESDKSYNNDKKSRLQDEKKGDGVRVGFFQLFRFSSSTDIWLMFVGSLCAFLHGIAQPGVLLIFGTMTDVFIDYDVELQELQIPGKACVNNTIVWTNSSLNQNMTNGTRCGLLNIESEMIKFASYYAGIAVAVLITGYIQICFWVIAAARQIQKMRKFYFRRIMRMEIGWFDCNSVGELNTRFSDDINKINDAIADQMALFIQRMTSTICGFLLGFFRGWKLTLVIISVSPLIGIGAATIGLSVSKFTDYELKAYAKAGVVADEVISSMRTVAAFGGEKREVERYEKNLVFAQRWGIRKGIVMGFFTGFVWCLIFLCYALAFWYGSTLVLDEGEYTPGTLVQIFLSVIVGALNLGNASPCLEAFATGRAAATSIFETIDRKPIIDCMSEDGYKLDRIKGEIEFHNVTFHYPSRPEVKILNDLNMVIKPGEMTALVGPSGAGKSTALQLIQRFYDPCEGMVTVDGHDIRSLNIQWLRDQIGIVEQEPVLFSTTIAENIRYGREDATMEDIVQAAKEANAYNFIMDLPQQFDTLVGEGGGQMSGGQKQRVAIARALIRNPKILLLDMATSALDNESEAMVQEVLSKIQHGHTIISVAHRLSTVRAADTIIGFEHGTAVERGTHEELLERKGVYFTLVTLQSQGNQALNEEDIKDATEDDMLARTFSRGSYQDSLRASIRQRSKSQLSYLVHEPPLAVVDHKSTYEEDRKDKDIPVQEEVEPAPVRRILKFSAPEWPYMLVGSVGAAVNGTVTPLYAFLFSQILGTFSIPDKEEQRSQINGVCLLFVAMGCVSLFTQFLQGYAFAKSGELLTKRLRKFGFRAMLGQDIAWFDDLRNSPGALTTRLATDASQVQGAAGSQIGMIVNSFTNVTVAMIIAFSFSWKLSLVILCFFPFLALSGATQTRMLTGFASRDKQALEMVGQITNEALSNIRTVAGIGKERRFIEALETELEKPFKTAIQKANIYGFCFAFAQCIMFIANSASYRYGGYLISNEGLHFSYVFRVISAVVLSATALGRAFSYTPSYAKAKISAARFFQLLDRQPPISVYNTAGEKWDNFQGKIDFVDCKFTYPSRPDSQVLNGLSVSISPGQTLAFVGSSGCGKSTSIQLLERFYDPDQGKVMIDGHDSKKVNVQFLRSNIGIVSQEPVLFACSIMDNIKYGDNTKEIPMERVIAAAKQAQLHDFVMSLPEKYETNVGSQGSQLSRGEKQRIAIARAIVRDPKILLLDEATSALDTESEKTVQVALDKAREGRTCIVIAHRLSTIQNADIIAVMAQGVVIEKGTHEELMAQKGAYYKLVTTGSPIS
METHOD: in vitro
EXPERIMENTAL PARAMETERS: hepatocytes in suspension, probe glycocholate

COMPOUND	ASSAY RESULT
COC(=O)N[C@H](C(=O)N[C@@H](Cc1ccccc1)[C@@H](O)CN(Cc1ccc(-c2ccccn2)cc1)NC(=O)[C@@H](NC(=O)OC)C(C)(C)C)C(C)(C)C	> 50%
C[C@@H](Oc1cc(-c2cnn(C3CCNCC3)c2)cnc1N)c1c(Cl)ccc(F)c1Cl	> 50%
CC(=O)N1CCN(c2ccc(OCC3COC(Cn4ccnc4)(c4ccc(Cl)cc4Cl)O3)cc2)CC1 (stereo not shown)	< 50%
O=c1c(O)c(-c2ccc(O)c(O)c2)oc2cc(O)cc(O)c12	< 50%
Cc1c(O)cccc1C(=O)N[C@@H](CSc1ccccc1)[C@H](O)CN1C[C@H]2CCCC[C@H]2C[C@H]1C(=O)NC(C)(C)C	> 50%

Recorded result, Cc1c(C)c2c(c(C)c1O)CCC(C)(COc1ccc(CC3SC(=O)NC3=O)cc1)O2 (stereo not shown) , inhibition at 1 h, 10 μM: > 50%

Recorded result, C=C[C@H]1C[N@@]2CC[C@H]1C[C@@H]2[C@@H](O)c1ccnc2ccc(OC)cc12 , inhibition at 1 h, 10 μM: < 50%

---

TARGET OR TEST SYSTEM: BSEP (Rattus norvegicus)
METHOD: Inhibition of BSEP activity (transport of glycocholate) in rat hepatocytes
EXPERIMENTAL READOUT: inhibition at 1 h, 1 μM

Recorded result, S=P(N1CC1)(N1CC1)N1CC1 , inhibition at 1 h, 1 μM: < 50%

---

TARGET OR TEST SYSTEM: BSEP (Rattus norvegicus)
Sequence (O70127 1-1321): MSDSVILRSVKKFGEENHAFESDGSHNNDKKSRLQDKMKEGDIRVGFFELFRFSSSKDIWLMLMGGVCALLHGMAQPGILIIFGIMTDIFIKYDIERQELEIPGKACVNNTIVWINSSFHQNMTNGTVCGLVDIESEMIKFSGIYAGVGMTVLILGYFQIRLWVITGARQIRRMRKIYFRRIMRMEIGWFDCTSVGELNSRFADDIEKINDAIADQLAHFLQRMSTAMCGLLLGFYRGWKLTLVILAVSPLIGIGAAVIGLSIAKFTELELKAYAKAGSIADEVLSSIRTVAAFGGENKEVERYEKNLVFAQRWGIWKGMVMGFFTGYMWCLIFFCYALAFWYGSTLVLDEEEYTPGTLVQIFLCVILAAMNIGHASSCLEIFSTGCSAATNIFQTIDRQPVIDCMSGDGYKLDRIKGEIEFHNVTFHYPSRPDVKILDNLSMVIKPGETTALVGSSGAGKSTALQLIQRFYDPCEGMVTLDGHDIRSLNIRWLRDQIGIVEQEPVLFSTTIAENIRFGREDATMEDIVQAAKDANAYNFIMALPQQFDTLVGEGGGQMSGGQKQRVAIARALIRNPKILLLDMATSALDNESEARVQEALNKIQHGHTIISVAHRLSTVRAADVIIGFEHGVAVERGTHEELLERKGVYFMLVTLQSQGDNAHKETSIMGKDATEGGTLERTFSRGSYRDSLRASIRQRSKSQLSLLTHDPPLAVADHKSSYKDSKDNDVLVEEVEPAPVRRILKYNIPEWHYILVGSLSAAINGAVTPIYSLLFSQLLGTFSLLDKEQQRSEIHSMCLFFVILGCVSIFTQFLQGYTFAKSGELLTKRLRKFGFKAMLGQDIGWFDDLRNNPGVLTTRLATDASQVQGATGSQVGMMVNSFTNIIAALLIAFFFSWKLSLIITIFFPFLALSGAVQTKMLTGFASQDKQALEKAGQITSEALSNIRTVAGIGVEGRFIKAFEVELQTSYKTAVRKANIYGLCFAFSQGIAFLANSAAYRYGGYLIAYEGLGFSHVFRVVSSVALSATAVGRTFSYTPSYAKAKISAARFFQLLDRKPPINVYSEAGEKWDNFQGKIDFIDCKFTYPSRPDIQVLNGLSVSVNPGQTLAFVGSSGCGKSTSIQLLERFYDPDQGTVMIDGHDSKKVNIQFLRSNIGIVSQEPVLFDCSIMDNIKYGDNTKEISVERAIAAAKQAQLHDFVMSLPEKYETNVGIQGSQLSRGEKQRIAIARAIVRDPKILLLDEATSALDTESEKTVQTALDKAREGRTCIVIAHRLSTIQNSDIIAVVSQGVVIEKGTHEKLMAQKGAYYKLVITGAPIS
METHOD: Inhibition of BSEP activity (transport of glycocholate) in rat hepatocytes
EXPERIMENTAL READOUT: inhibition at 1 h, 10 μM

Recorded result, S=P(N1CC1)(N1CC1)N1CC1 , inhibition at 1 h, 10 μM: < 50%
